target: Carbonic anhydrase 2 (Homo sapiens); assay: CAII small-molecule binders, profiling panel, biochemical, small-molecule microarray, Alexa647-labelled CAII (AID 1122); settings: CAII-A647 binding fluorescence, higher = more signal
attribute.measured: composite z-score
Please state the value as a number alone, without comment.

>  <molecule>
CC(C)C(O)C1C=CC2C(=O)N(c3ccccc3)C(=O)C2N1Nc1ccc(C#N)cc1 (configuration not stated)

>  <assay.target>
Carbonic anhydrase 2 (Homo sapiens)

>  <quantitative.result>
0.842

$$$$
>  <molecule>
COCC(=C=CC[C@H](O)c1ccc(OCCO)cc1)C[C@H](O)c1cc(Cl)cc(Cl)c1O

>  <assay.target>
Carbonic anhydrase 2 (Homo sapiens)

>  <quantitative.result>
0.718

$$$$
>  <molecule>
Cc1ccc(S[C@]2(C(=O)NCC(C)C)CC(=O)N(Cc3ccccc3)[C@@H]2c2ccc(CO)cc2I)cc1

>  <assay.target>
Carbonic anhydrase 2 (Homo sapiens)

>  <quantitative.result>
0.633

$$$$
>  <molecule>
CC(C)(C)OC(=O)CC[C@@]1(C(=O)NCCN2CCOCC2)N=C(c2ccc(OCCCO)cc2)O[C@@H]1c1ccccc1

>  <assay.target>
Carbonic anhydrase 2 (Homo sapiens)

>  <quantitative.result>
0.539

$$$$
>  <molecule>
C=C[C@@H](COC(C)=O)N(Cc1ccccc1[N+](=O)[O-])S(=O)(=O)c1ccc(Br)cc1

>  <assay.target>
Carbonic anhydrase 2 (Homo sapiens)

>  <quantitative.result>
0.659

$$$$

Request: Annotate the molecule C=CCNC(=O)[C@@H]1[C@H]2C(=O)O[C@H](c3ccccc3)[C@H](c3ccccc3)N2[C@H](c2ccc(OCCO)cc2)[C@@]12C(=O)Nc1ccccc12 with its measured composite z-score.
Result: 0.692

Request: Annotate the molecule COCCOC(=O)N1C(=O)[C@@]2(c3cc(C#CCC(C(=O)OC)C(=O)OC)ccc31)[C@H](C(=O)N1CCN(c3ncccn3)CC1)[C@H]1C(=O)O[C@H](c3ccccc3)[C@H](c3ccccc3)N1[C@@H]2c1ccc(OCCO)cc1 with its measured composite z-score.
Result: 0.323
